// values below are reported DC50
# measured_target: IRAK4 (Homo sapiens (Human), UniProt Q9NWZ3)
# Sequence (Q9NWZ3 whole entry): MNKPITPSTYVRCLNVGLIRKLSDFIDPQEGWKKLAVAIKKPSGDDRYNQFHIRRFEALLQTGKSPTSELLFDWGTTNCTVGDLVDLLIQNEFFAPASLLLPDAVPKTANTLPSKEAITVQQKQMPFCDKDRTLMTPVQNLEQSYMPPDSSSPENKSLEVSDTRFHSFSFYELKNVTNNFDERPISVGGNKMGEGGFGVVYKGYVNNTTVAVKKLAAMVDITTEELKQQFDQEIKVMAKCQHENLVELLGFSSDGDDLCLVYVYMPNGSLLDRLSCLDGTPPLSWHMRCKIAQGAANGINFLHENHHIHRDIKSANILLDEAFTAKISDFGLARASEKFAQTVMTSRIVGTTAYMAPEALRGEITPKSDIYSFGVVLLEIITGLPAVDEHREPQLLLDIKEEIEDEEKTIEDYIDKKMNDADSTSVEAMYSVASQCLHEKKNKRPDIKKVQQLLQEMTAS
# test_summary: IRAK4 MSD degradation in OCI-LY10
# Format: cell-based
# test_context: OCI-LY10, 24 hrs, MSD; read-out: IRAK4 MSD degradation in OCI-LY10 at 24 hrs: Average external-Abs DC50

- CN(CCCOCCCNc1cccc2c1C(=O)N(C1CCC(=O)NC1=O)C2=O)C[C@H]1CC[C@H](n2cc(NC(=O)c3coc(-c4ccnc(N[C@H]5CCCC[C@H]5O)c4)n3)c(C(F)F)n2)CC1 (some centres unmarked): 0.01 to 0.1 µM
- O=C1CCC(N2C(=O)c3cccc(NCCOC4CCN(C[C@H]5CC[C@H](n6cc(NC(=O)c7cnn8ccc(N9CCOCC9)nc78)c(C(F)F)n6)CC5)CC4)c3C2=O)C(=O)N1 (some centres unmarked): 0.01 to 0.1 µM
- O=C1CCC(N2Cc3c(OC4CC5(CCN(C[C@H]6CC[C@H](n7cc(NC(=O)c8cnn9ccc(N%10C[C@H]%11C[C@@H]%10CO%11)nc89)c(C(F)F)n7)CC6)CC5)C4)cccc3C2=O)C(=O)N1 (some centres unmarked): < 0.01 µM
- Cn1c(=O)n(C2CCC(=O)NC2=O)c2cccc(CCCOCCOCCNC(=O)[C@H]3CC[C@H](n4cc(NC(=O)c5coc(-c6ccnc(NCC7CC7)c6)n5)c(C(F)F)n4)CC3)c21 (some centres unmarked): 0.01 to 0.1 µM

Problem: Identify the reported DC50 for the following entry. CN(CCc1ccc(CCNc2cccc3c2C(=O)N(C2CCC(=O)NC2=O)C3=O)cc1)C[C@H]1CC[C@H](n2cc(NC(=O)c3cnn4ccc(N5C[C@H]6C[C@@H]5CO6)nc34)c(C(F)F)n2)CC1 (some centres unmarked)
Result: 0.01 to 0.1 µM

====

# measured_target: IRAK4 (Homo sapiens (Human))
# test_summary: IRAK4 MSD degradation in OCI-LY10
# Format: cell-based
# test_context: OCI-LY10, 24 hrs; read-out: IRAK4 MSD degradation in OCI-LY10 at 24 hrs: DC50
metric_name: DC50

Examples from the recorded data:
• O=C1CCC(N2C(=O)c3cccc(N[C@H]4C[C@H](OC5CCN(C[C@H]6CC[C@H](n7cc(NC(=O)c8cnn9ccc(N%10C[C@H]%11C[C@@H]%10CO%11)nc89)c(C(F)F)n7)CC6)CC5)C4)c3C2=O)C(=O)N1 (stereo partly shown) = < 10 nM
• CN(Cc1ccc(-n2cc(NC(=O)c3cnn4ccc(N5CCOCC5)nc34)c(C(F)F)n2)cc1)[C@H]1CC[C@H](Nc2cccc3c2C(=O)N(C2CCC(=O)NC2=O)C3=O)CC1 (stereo partly shown) = 10 to 100 nM
• CN(C(=O)c1cnn2ccc(N3CCOCC3)nc12)c1cn([C@H]2CC[C@H](CN3CCN(Cc4ccc(COc5cccc6c5CN(C5CCC(=O)NC5=O)C6=O)cc4)CC3)CC2)nc1C(F)F (stereo partly shown) = > 1000 nM
• CN(CC1CC1)c1ccn2ncc(C(=O)Nc3cn([C@H]4CC[C@H](CN(C)[C@H]5CC[C@H](Nc6cccc7c6C(=O)N(C6CCC(=O)NC6=O)C7=O)CC5)CC4)nc3C(F)F)c2n1 (stereo partly shown) = 10 to 100 nM
• CN(CCC(C)(C)O)c1ccn2ncc(C(=O)Nc3cn([C@H]4CC[C@H](CN(C)[C@H]5CC[C@H](Nc6cccc7c6C(=O)N(C6CCC(=O)NC6=O)C7=O)CC5)CC4)nc3C(F)F)c2n1 (stereo partly shown) = 10 to 100 nM
• CN(CCc1ccc(CNc2cccc3c2C(=O)N(C2CCC(=O)N(C)C2=O)C3=O)cc1)C[C@H]1CC[C@H](n2cc(NC(=O)c3cnn4ccc(N5C[C@H]6CC5CO6)nc34)c(C(F)F)n2)CC1 (stereo partly shown) = > 1000 nM

Problem: Input O=C1CCC(N2C(=O)c3cccc(NCCCCC[C@@H]4CN(C[C@H]5CC[C@H](n6cc(NC(=O)c7cnn8ccc(N9C[C@H]%10C[C@@H]9CO%10)nc78)c(C(F)F)n6)CC5)CCO4)c3C2=O)C(=O)N1 (stereo partly shown) , output reported DC50.
Result: 10 to 100 nM

Problem: Supply recorded DC50 for CN1C(=O)CCC(N2C(=O)c3cccc(NCCCOCCCS(=O)(=O)N(C)C(=O)[C@H]4CC[C@H](n5cc(NC(=O)c6cnn7ccc(N8C[C@H]9C[C@@H]8CO9)nc67)c(C(F)F)n5)CC4)c3C2=O)C1=O (stereo in doubt) here.
Result: > 1000 nM

Problem: Answer with the recorded DC50 for the compound listed here: O=C1CCC(N2C(=O)c3cccc(NCC4CCN(Cc5ccc(-n6cc(NC(=O)c7cnn8ccc(N9C[C@H]%10C[C@@H]9CO%10)nc78)c(C(F)F)n6)cc5)CC4)c3C2=O)C(=O)N1 (stereo partly shown)
Result: > 1000 nM

Problem: State its DC50: CN(CC1(CNc2cccc3c2C(=O)N(C2CCC(=O)NC2=O)C3=O)CCC1)C[C@H]1CC[C@H](n2cc(NC(=O)c3cnn4ccc(N5C[C@H]6C[C@@H]5CO6)nc34)c(C(F)F)n2)CC1 (stereo partly shown)
Result: > 1000 nM

Problem: Give reported DC50 value for CN(CC1CCC(n2cc(NC(=O)c3cnn4ccc(C5CCOCC5)nc34)c(C(F)F)n2)CC1)[C@H]1CC[C@H](Nc2cccc3c2C(=O)N(C2CCC(=O)NC2=O)C3=O)CC1 (stereo partly shown)
Result: 10 to 100 nM

Problem: Please report DC50 for the following compound: CN(CCCN1CCO[C@H](CNc2cccc3c2C(=O)N(C2CCC(=O)NC2=O)C3=O)C1)C[C@H]1CC[C@H](n2cc(NC(=O)c3cnn4ccc(N5C[C@H]6C[C@@H]5CO6)nc34)c(C(F)F)n2)CC1 (stereo partly shown)
Result: < 10 nM

Problem: For the compound CN(CCN1CCO[C@@H](CNc2cccc3c2C(=O)N(C2CCC(=O)NC2=O)C3=O)C1)C[C@H]1CC[C@H](n2cc(NC(=O)c3cnn4ccc(N5C[C@H]6C[C@@H]5CO6)nc34)c(C(F)F)n2)CC1 (stereo partly shown) , give its measured DC50 value.
Result: 10 to 100 nM

Problem: Please indicate DC50 recorded for CN(C[C@H]1CC[C@H](n2cc(NC(=O)c3cnn4ccc(NCCC(C)(C)O)nc34)c(C(F)F)n2)CC1)[C@H]1CC[C@H](Nc2cccc3c2C(=O)N(C2CCC(=O)NC2=O)C3=O)CC1 (stereo partly shown)
Result: < 10 nM

Problem: State its DC50: O=C1CCC(N2C(=O)c3cccc(N[C@H]4C[C@H](OC5CCN(C[C@H]6CC[C@H](n7cc(NC(=O)c8cnn9ccc(N%10CCOCC%10)nc89)c(C(F)F)n7)CC6)CC5)C4)c3C2=O)C(=O)N1 (stereo partly shown)
Result: < 10 nM

Problem: Please report DC50 for the following compound: O=C1CCC(N2C(=O)c3cccc(NCCCOCCCN4CCN(c5ncc(-n6cc(NC(=O)c7cnn8ccc(N9CCOCC9)nc78)c(C(F)F)n6)cn5)CC4)c3C2=O)C(=O)N1 (stereo not shown)
Result: 100 to 1000 nM

Problem: Determine its reported DC50: CN(CCCO[C@H]1C[C@H](Nc2cccc3c2C(=O)N(C2CCC(=O)NC2=O)C3=O)C1)C[C@H]1CC[C@H](n2cc(NC(=O)c3cnn4ccc(N5C[C@H]6C[C@@H]5CO6)nc34)c(C(F)F)n2)CC1 (stereo partly shown)
Result: < 10 nM

Problem: For the compound O=C1CCC(N2C(=O)c3cccc(NCC4CC5(CCN(Cc6ccc(-n7cc(NC(=O)c8cnn9ccc(N%10C[C@H]%11C[C@@H]%10CO%11)nc89)c(C(F)F)n7)cc6)CC5)C4)c3C2=O)C(=O)N1 (stereo partly shown) , give its reported DC50.
Result: > 1000 nM

Problem: Look up and state reported DC50 for CN(C[C@H]1CC[C@H](n2cc(NC(=O)c3cnn4ccc(N5C[C@H]6CC5CO6)nc34)c(C(F)F)n2)CC1)C1CCC2(CC1)CC(Nc1cccc3c1C(=O)N(C1CCC(=O)NC1=O)C3=O)C2 (stereo partly shown)
Result: 10 to 100 nM
